All values here come from patent US6211170A.

Tested on: HCMV (strain AD169, ATCC VR-538)
TEST SUMMARY: Plaque Reduction Assay (PRA) in HCMV-infected Hs-68 cells
Format: cell-based, human cytomegalovirus (HCMV)
ASSAY SETUP: Human betaherpesvirus 5, AD169, Hs68, 192 h
pEC50: −log10 of the molar value.
OBSERVATION TYPE: pEC50

> print(dat)
                              record.smiles  observation.type  value.measured
1  CC[C@@H](NC(=O)N1C(=O)C[C@@H]1CSc1nc2ncccc2s1)c1ccccc1             pEC50          < 4.28
2  CC[C@@H](NC(=O)N1C(=O)C[C@@H]1CSc1nccn1C)c1ccccc1             pEC50          < 3.57
3  CC[C@@H](NC(=O)N1C(=O)C[C@@H]1CSc1nc2ccccc2o1)c1ccccc1             pEC50            4.66

====

TARGET DESC: HCMV NO protease (Human cytomegalovirus, UniProt P16753)
Sequence (P16753 1-256): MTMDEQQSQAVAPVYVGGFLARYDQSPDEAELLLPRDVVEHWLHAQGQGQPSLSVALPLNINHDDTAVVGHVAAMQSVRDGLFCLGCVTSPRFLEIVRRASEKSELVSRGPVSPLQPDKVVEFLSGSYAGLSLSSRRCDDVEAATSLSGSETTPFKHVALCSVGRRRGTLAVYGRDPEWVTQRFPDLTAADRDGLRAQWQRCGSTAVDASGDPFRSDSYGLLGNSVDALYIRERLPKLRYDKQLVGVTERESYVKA
Rule: IC50 below 4 µM gives satisfied. Equal to or above 4 µM gives not satisfied.

> print(dat)
                                    compound       category
 1  CN(Cc1ccc(C(=O)OCc2ccccc2)cc1)C(=O)N1C(=O)C[C@@H]1CSc1ncccn1      satisfied
 2  CN(Cc1ccc(C(F)(F)F)cc1)C(=O)N1C(=O)C[C@@H]1CSc1ncccn1      satisfied
 3  CN(Cc1ccccc1)C(=O)N1C(=O)C[C@@H]1CSc1ncccn1  not satisfied
 4  CC[C@@H](NC(=O)N1C(=O)C[C@@H]1[C@H](C)Sc1ncccn1)c1ccccc1  not satisfied
 5  CC[C@@H](NC(=O)N1C(=O)C[C@@H]1CN(CC)CC)c1ccccc1  not satisfied
 6  CC[C@@H](NC(=O)N1C(=O)[C@@H](C)[C@@H]1CSC(C)C)c1ccccc1  not satisfied
 7  CN(Cc1ccc(C(F)(F)F)cc1)C(=O)N1C(=O)C[C@@H]1CSc1nc2ncccc2s1      satisfied
 8  CN(Cc1ccc2c(c1)OCO2)C(=O)N1C(=O)C[C@@H]1CSc1ncccn1  not satisfied
 9  COC(=O)c1ccc(CN(C)C(=O)N2C(=O)C[C@@H]2CSc2nnnn2C)cc1      satisfied
10  CN(Cc1ccc(F)cc1)C(=O)N1C(=O)C[C@@H]1CSc1ncccn1  not satisfied
11  CC[C@@H](NC(=O)N1C(=O)[C@@H](C)[C@@H]1CSC1CCCC1)c1ccccc1  not satisfied
12  CC[C@@H](NC(=O)N1C(=O)C[C@@H]1CSC)c1ccccc1      satisfied
13  O=C(NC[C@H]1CC(=O)N1C(=O)NCc1ccccc1)c1ccccc1      satisfied
14  CC[C@@H](NC(=O)N1C(=O)C[C@@H]1CSc1ccccc1)c1ccccc1      satisfied
15  O=C1C[C@H](C[S+]([O-])c2ccccc2)N1C(=O)NCc1ccccc1 (stereo partly drawn)  not satisfied
16  CC[C@@H](NC(=O)N1C(=O)C[C@@H]1COC(=O)c1ccccc1)c1ccccc1      satisfied
17     CC(=O)OC[C@H]1CC(=O)N1C(=O)NCc1ccncc1  not satisfied

====

TARGET DESC: UniProt:P16753
pIC50: −log10 of the molar value.
Would you please tag the item met when its pIC50 is 6 or above, and not met when it is below?

> print(dat)
                              record.smiles     target.desc  category
1  CN(Cc1ccc(C(F)(F)F)cc1)C(=O)N1C(=O)C[C@@H]1CSc1nc2ccccc2o1  UniProt:P16753   not met
2  O=C1C[C@H](CS(=O)(=O)c2ccccc2)N1C(=O)NCc1ccccc1  UniProt:P16753   not met
3  CC[C@@H](NC(=O)N1C(=O)[C@@H](C)[C@@H]1CSc1ncccn1)c1ccccc1  UniProt:P16753       met
4  CC[C@@H](NC(=O)N1C(=O)C[C@@H]1CSc1ccncc1)c1ccccc1  UniProt:P16753   not met
5  C[C@@H](NC(=O)N1C(=O)C[C@@H]1CSc1ccccc1)c1ccccc1  UniProt:P16753   not met
6  CC[C@@H](NC(=O)N1C(=O)[C@@H](C)[C@@H]1CSc1nc(C)cc(C)n1)c1ccccc1  UniProt:P16753   not met
7  CN(Cc1ccc(C(F)(F)F)cc1)C(=O)N1C(=O)C[C@@H]1CSc1ccncc1  UniProt:P16753       met
